# Lookup of reported AUC of dose-response viability curve keyed by entry
# System: TK-10
# run-description: AUC of dose-response viability curve, drug + dasatinib, normalised to DMSO (arbitrary (AUC of normalised viability)); higher = less growth inhibition
# cond: treatment: drug + dasatinib (fixed dose, not stated); 5 days
// return just the number, without any unit appended

Consider the worked cases shown below.
>>> endpoint_value("CNC(=O)c1ccc(C)c(-n2c(C)cc(OCc3ccc(F)cc3F)c(Br)c2=O)c1 + Cc1nc(Nc2ncc(C(=O)Nc3c(C)cccc3Cl)s2)cc(N2CCN(CCO)CC2)n1")
2.23
>>> endpoint_value("CC(=O)Nc1ccc(NC(=S)NC(=O)c2ccc(C(C)(C)C)cc2)cc1 [Tenovin-1] + Cc1nc(Nc2ncc(C(=O)Nc3c(C)cccc3Cl)s2)cc(N2CCN(CCO)CC2)n1")
2.2
>>> endpoint_value("Cc1cc2c(C(C)C)c(O)c(O)c(C=O)c2c(O)c1-c1c(C)cc2c(C(C)C)c(O)c(O)c(C=O)c2c1O [AT101] + Cc1nc(Nc2ncc(C(=O)Nc3c(C)cccc3Cl)s2)cc(N2CCN(CCO)CC2)n1")
2.33

Quick check: AUC of dose-response viability curve of CCCS(=O)(=O)Nc1ccc(F)c(C(=O)c2c[nH]c3ncc(-c4ccc(Cl)cc4)cc23)c1F [Vemurafenib (PLX4032)] + Cc1nc(Nc2ncc(C(=O)Nc3c(C)cccc3Cl)s2)cc(N2CCN(CCO)CC2)n1 ?
2.4
